test system: 786-0; assay: Growth inhibition of Homo sapiens (human) 786-0 cells at 10 uM after 48 hr by SRB assay; type: functional; settings: 786-0, 48 h, read-out: GI
measured quantity: inhibition of growth at 10 µM (%)
Only the number, expressed in %, is required.

Known results for compounds:
- smi: "COc1ccc(OC)c(/C=C/c2nnc(Nc3ccc(Cl)cc3)o2)c1"
  inhibition of growth at 10 µM (%): 72.1
- smi: "COc1ccc(OC)c(/C=C/C(=O)N/N=C/c2ccccc2)c1"
  inhibition of growth at 10 µM (%): 45.7
- smi: "COc1ccc(OC)c(/C=C/c2nnc(S)n2-c2ccc(Cl)cc2)c1"
  inhibition of growth at 10 µM (%): 41.1

Here's the next entry for you.
What the record says about `COc1ccc(OC)c(/C=C/C(=O)N/N=C/c2ccc(Cl)cc2)c1` : inhibition of growth at 10 µM is 83.3
